Experiment: compound binding in COS7 lysate, probe aLAP1, primary screen, cell lysate, small-molecule microarray (AID 1124);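 further: lysate comes from COS7 cells expressing LAP1 and is applied at 0.3 µg/mL; score merges spot fluorescence near 667 nm with signal-to-noise over triplicate slides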
Settings: probe aLAP1, fluorescence, higher = more signal
RECORDED_ENDPOINT: composite z-score

COMPOUND | VALUE_REPORTED
C[C@@H]1CCC2C(=O)N(Cc3ccccc3)C[C@@H](O)CN2[C@H]1c1ccc(Br)cc1 (some centres undefined) | -0.0066
COCCCNC(=O)[C@@]1(CCS(=O)(=O)c2ccccc2)N=C(c2ccc(OCCCO)cc2)O[C@H]1c1ccccc1 | 1.01
COCCOC(=O)N1C(=O)[C@@]2(c3cc(C#Cc4ccc(OC)cc4)ccc31)[C@H](c1ccc(O)cc1)N1[C@H](c3ccccc3)[C@H](c3ccccc3)OC(=O)[C@H]1[C@@H]2C(N)=O | 0.364
CCCC=C(CCC)[C@@H](NC(=O)c1ccc(-c2ccccc2)cc1)c1ccc(C(=O)OC)cc1 | -0.075
CCOC(=O)CCN1C(=O)[C@H]2[C@H]3[C@H](O)[C@H](O)CC(=NNC(=O)OCc4ccc(OC)cc4)[C@@H]3CC[C@H]2C1=O | -0.239
COc1cccc([C@H]2Oc3ccc(OC)cc3C(=NO[C@H](C)c3cn([C@@H]4COC[C@H]4O)nn3)[C@@H]2O)c1 | -0.358
CC1(C)OCC(C(O)C2=CCCCC2=O)CO1 (centres undefined) | 0.697
CC1CC/C=C\[C@H]2OC34C=CCN(C(C)C)C(=O)[C@H]3N(CCCO)C(=O)[C@@H]4C2C(=O)O1 (some centres undefined) | 0.962
CC(=O)OC[C@H]1O[C@H](C#CCCCc2ccccc2)C=C[C@@H]1OC(C)=O | 0.46
